# System: OVCAR-3 ovarian
# Assay Notes: NCI tumour cell line growth inhibition, 48 h
Outcome Measure: TGI

Example compounds with recorded TGI:
Compound: NCCCNCc1c2ccccc2c(CNCCCN)c2ccccc12
Outcome Measure: TGI
Observed Result: 98.5 µM
--
Compound: NS(=O)(=O)c1ccc(N=Nc2ccc(O)cc2)cc1
Outcome Measure: TGI
Observed Result: > 100 µM
--
Compound: COc1ccc2c(c1)/C(=C\c1c(-c3ccccc3)nc3sccn13)C(=O)N2
Outcome Measure: TGI
Observed Result: 0.444 µM
--
Compound: COc1cccc(C2SC(C)C(=O)N2NC(=O)C(O)c2ccccc2)c1 (stereo unspecified)
Outcome Measure: TGI
Observed Result: > 100 µM
--
Compound: C[C@]1(c2nc3c(C(N)=O)cccc3[nH]2)CCCN1
Outcome Measure: TGI
Observed Result: > 100 µM

Looking up "O=c1c2ccccc2ncn1COCc1ccccc1" , I see its TGI listed as > 100 µM

Looking up Cc1cn(CCCCOC(=O)NC(CCCN=C(N)N)C(=O)O)c(=O)[nH]c1=O (stereo unspecified) , I see its TGI listed as > 100 µM

Looking up "Cn1cc(-c2ncnc3ccc(-c4cnc(Cl)c(NS(C)(=O)=O)c4)cc23)c2ccccc21" , I see its TGI listed as 13.8 µM

Looking up O=C1C2CCCC2N1Cc1ccccc1 (stereo unspecified) , I see its TGI listed as > 100 µM

Looking up OCC1CC2C=CCC(C2)C1 (stereo unspecified) , I see its TGI listed as > 100 µM

Looking up "NC(=O)c1ccc(I)c([N+](=O)[O-])c1" , I see its TGI listed as > 100 µM

----------
# System: SN12C renal
# Assay Notes: NCI tumour cell line growth inhibition, 48 h; in the data active = GI50 below about 0.43 µM; inactive = the rest
Could you please pick one outcome from this set? label 1 (active), label 0 (inactive)

Compound: COc1ccc2c(c1)C(=O)/C(=C/c1ccc(O)cc1)O2
Assay Target: SN12C renal
Qualitative Label: label 0
--
Compound: Cc1cc2[nH]c(=O)c3c4ncccc4cn3c2cc1C
Assay Target: SN12C renal
Qualitative Label: label 0
--
Compound: O=c1cc(-c2ccccc2)oc2c(O)c(O)ccc12
Assay Target: SN12C renal
Qualitative Label: label 0
--
Compound: COc1cc(/C=C/C(=O)c2ccccc2O)ccc1OCCCOc1cc2c(cc1OC)C(=O)N1CCC[C@H]1C=N2
Assay Target: SN12C renal
Qualitative Label: label 1
--
Compound: Cc1cccc2c(=O)c3c(sc12)c(NCCCN)nc1ccccc13
Assay Target: SN12C renal
Qualitative Label: label 0

Here is another compound to look at.
Query: Which outcome did this test record for the compound CN1C(c2ccccc2)CC(=NO)CC1c1ccccc1 (stereo not drawn) ?
Reply: label 0

----------
# System: BT-549 breast
# Assay Notes: NCI tumour cell line growth inhibition, 48 h
Here the recorded GI50 is given for each entry.

Compound: Cc1cc(C)c([I+]c2c(C)cc(C)cc2C)c(C)c1
Assay Target: BT-549 breast
Outcome Measure: GI50
Observed Result: 0.466 µM
--
Compound: O=C1NN(C(=O)c2ccccc2)C(c2ccc(Cl)c(Cl)c2)=C/C1=C\c1ccccc1[N+](=O)[O-]
Assay Target: BT-549 breast
Outcome Measure: GI50
Observed Result: 1.18 µM
--
Compound: COc1ccc(NC(=O)c2ccc(C(F)(F)F)nc2Nc2ccc(Cl)cc2C)cc1Cl
Assay Target: BT-549 breast
Outcome Measure: GI50
Observed Result: 4.88 µM
--
Compound: N[C@@H](Cc1c[nH]c2ccccc12)C(=O)NC1CCN(Cc2c[nH]c3ccc(Cl)cc23)CC1
Assay Target: BT-549 breast
Outcome Measure: GI50
Observed Result: 16 µM
--
Compound: Oc1c(CN2CCCCC2)ccc2cccnc12
Assay Target: BT-549 breast
Outcome Measure: GI50
Observed Result: 10.4 µM

Looking up CO[C@H]1/C=C/O[C@@]2(C)Oc3c(C)c(O)c4c(O)c(c(/C=N/N5C(C)CN(Cc6ccc(C#N)cc6)CC5C)c(O)c4c3C2=O)NC(=O)/C(C)=C\C=C\[C@H](C)[C@H](O)[C@@H](C)[C@@H](O)[C@@H](C)[C@H](OC(C)=O)[C@@H]1C (some centres not stated) , I see its GI50 listed as 8.85 µM

Looking up "O=c1oc2ccc(F)cc2c(=O)n1-c1ccc(I)cc1F" , I see its GI50 listed as 0.486 µM
